System: T1, cynomolgus monkey serum albumin (cynomolgus monkey, UniProt A2V9Z4 25-608)
T1 construct: Immobilised on SPR chips; also called cynoSA; cynomolgus albumin
Experimental Details: SPR Biacore 8K+ SCK, albumin on chip, pH 7.4
Metric: Kd (nM)
Dear colleague, please return just the value in nM, with no unit written.

These recorded examples may help you get a feel for the data.
-- ask Write down Kd measured for item Alb23 S54A (VHH, VHH alone) VHH: EVQLLESGGGLVQPGGSLRLSCAASGFTFRSFGMSWVRQAPGKGPEWVSSISGAGSDTLYADSVKGRFTISRDNSKNTLYLQMNSLRPEDTAVYYCTIGGSLSRSSQGTLVTVSS
-- reply 3.13

-- ask Write down Kd measured for item Alb23 I51A (VHH, VHH alone) VHH: EVQLLESGGGLVQPGGSLRLSCAASGFTFRSFGMSWVRQAPGKGPEWVSSASGSGSDTLYADSVKGRFTISRDNSKNTLYLQMNSLRPEDTAVYYCTIGGSLSRSSQGTLVTVSS
-- reply 5.53

***
-- ask Write down Kd measured for item Alb23 S50A (VHH, VHH alone) VHH: EVQLLESGGGLVQPGGSLRLSCAASGFTFRSFGMSWVRQAPGKGPEWVSAISGSGSDTLYADSVKGRFTISRDNSKNTLYLQMNSLRPEDTAVYYCTIGGSLSRSSQGTLVTVSS
-- reply 2.6

-- ask Write down Kd measured for item Alb23 S31A (VHH, VHH alone) VHH: EVQLLESGGGLVQPGGSLRLSCAASGFTFRAFGMSWVRQAPGKGPEWVSSISGSGSDTLYADSVKGRFTISRDNSKNTLYLQMNSLRPEDTAVYYCTIGGSLSRSSQGTLVTVSS
-- reply 3.74
